experiment: protease stability score; higher = more stable; yeast display proteolysis, trypsin and chymotrypsin;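 further: relative to predicted unfolded state with 0 unfolded-like and 1 meaning tenfold more protease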
Think of 1 as a floor: if protease stability score stands on it or above, it is MET; beneath it, NOT MET.

Exam item: Does the reported protease stability score for DREKEFVKEFFTMLHNVLHTGDFKLFEKMLDPRYRVEIGDKEAHGREEVLRWFHEYMRIAGIDHIELHLHNFDYQGDKVRMDTIVILIQGDKTFHLDVRIVVKKIDGQWINQTERIH fall at or above the 1 mark?
Marked response: MET

Exam item: Item: DEEEELYRIALEESIRTLKTGDEDRVHELFDPRARIIVNGREFHGRERATKWAFDWIHKVKNMRFELRDFRIQGDKIIIHGKLHVNGQETEIIIIIHKIDGRWLIEQVEVR
Marked response: MET

Exam item: Can you check SEEDKETKIALEISEKILETGDWEELSKNLDPDARFTFENRTHVGREEVSELLLKLIKEMGVNHVNIEDNDLQGDKIILIVEVRVGDKRVNLEIIAVKVNGRWRIHSIHERHE next?
Marked response: NOT MET

Exam item: Query DELHKHAEHMAKLIVETLETGDEDKIRELADPNVRMEIGDKRTIGREELTKLLRKWLSEWRVHDMHVESVEMQGDYTHLHTSVRGEVNGRHRELDTRIDVLVVNGRLKSLRLEIR next
Marked response: MET

Exam item: Further, for SEEDKLIKDAFTEIHTWIKTGNEEYLERLVDPHVKIIINGRELHGMEFLHEELKRFDHLHLRDHHLESFDIQGNKIVLEGTNDIEIKWNGVRIRTELEIHFFVEKVNGKWIIREFVIV ?
Marked response: MET

Exam item: Further, for DEDKEEAVRIIHEWSHAVFTGDFERELRLADPNVRLIINGRDFHGWHSLRELLNHMRLKTHHTDVKRSRSQGDFVEIDGLFNFTIHFNGRDLNVITDVKVVINKIDGRWKIESVHYE ?
Marked response: MET

Exam item: # iterate: SELEEKAREMLTLLHKFWRTGNEEFFTKLFDPDMKLTVGDKEYIGMEDVTEYFVKWTREARLTDQETTDIEYYDGRLRIHVEMDVKQGDKRRKLESIIILLKVDGRWFATKVEIR
Marked response: NOT MET

Exam item: Can you check SEEHEHIRRVWEEIRRVLETGDEEALMRMIDPNVRIRNVQGDKELDIHGRESVVRRILKIFQEIWFDFEDRHIDIQGDKLHIEGHLILRVNGREHRLDVREVWVVVNGVIHTVEFMVE next?
Marked response: MET

Exam item: Also check DEEEELLKDLLRKWLEAMRTGDWEELERLLDPHVRIHIGDKDIHGRELFIELHERELKRIKNVKIVIDDKHIEFQGDKARVDGKLQEQVGDKEITHRVIIIMRVIDGKFESMEVRYV
Marked response: MET

Exam item: For SDEERSIKILIDLYRLAQETGDERIMREYADPDMKLDIGDKRDHGWEVLVRMVRHLRFHEIHIEHFEVQGNKMHITVRIDTEVNGQRWILRAHIIVTKFNGKWRIEHREEE then?
Marked response: MET

Exam item: # repeat for SEHEHELIEFAELFREIIATGDEDALRRLLDPNTQWDFNGVDLHGRDEVIKELRRWRDRFPNMRVHIRRIRLEVINGRLQLDLHTFVEFDGVEFVQHIHLHIEKVNGRWSVHHIEVRYR
Marked response: MET

====

assay: protease stability score; higher = more stable; yeast display proteolysis, trypsin and chymotrypsin;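 further: relative to predicted unfolded state with 0 unfolded-like and 1 meaning tenfold more protease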
reported_metric: protease stability score
Answer with the value's number alone.

Exam item: Can you share its protease stability score? I mean this sequence: NETEELLRRMIEDNLRAMLTGDEERIRKLADPNVRNHINGRTHVGREELAHVFHRIFEEWRIDHMTLRDSDTQGEFIILHYIFDIRFDGRRQELEVEIIFYKIDGRWILHKITFK
Marked response: 0.75

Exam item: Try the sequence DEEHEWAQRIIEYLSKNEKTGDEDSARELADPNMRFEIDGVEIVGMETWVRRFLELRVEDLTMDVEHIHVQGNFVHIQTRLELHGHINGRRTRYTTTMRLFVLKINGKWIITHVKYE
Marked response: 1.45

Exam item: How about this sequence: SEDDNLNEWMMRVWLTTLRTGDEKNTERLLDPNARLHVGDKDFHGRELLTKHFYDEVETLGFKHSELKRLLYQGEKMIIHVEVNINGVDIHIDVHIRKIDGRWYIHQVHVR
Marked response: 2.14

Exam item: // repeat for SDEERLLKEIYRIWIRLFETGDWKEFEQMFDPNVRLIIGDKDLHGMELYSKFMRHFVEHIRFEDHQEHEIRVIGDKIHVHGREVGNVNGKRHRREIEIRLVVVNGVFKSEELRVH and report
Marked response: 1.18

Exam item: Input NEEEHTFEIAIRILREMWETGDEKLSQELADPNARLDIGDKHFHGRESLRHRVHEMRIEHTDIHSYHTINGRVHMDWRVDGFINGQRHDTRMHLDVIKIDGRWIIKNVEVK
Marked response: 0.571

Exam item: Lookup SEEDELAHRWVRTWVRAVETGDEDTLTELFDPHARIIITIGDKDIRLHGMHEMLRWYRFFKGMRIELEDMDIQGEKIDTDIRLHQGDKTTTTKLQLHIVNGRMEHVILRVQ
Marked response: 1.54

Exam item: Now give it for DEEEEALRLAFELIYTVLRTGDEEMWRRMADPDTKIDIGDKHFHGREHVEYVLRELHKRIDHIDHSHIDHVHVQGDKVHMDTTIVGTYDGQRTNLKTSFIVVKINGKWVMTSVRFR too.
Marked response: 1.38

Exam item: Now the same for DEIDERLHFLMKRVLHLWETGDWDMWMNYADPHVRHEIIIGDKRYSLHGREEYAEELLRHHRHIRLHTIHITHIDVVNGRVELNGRVNGDINGQHVDVELYVELKVVDGRIESERMEFR
Marked response: 0.412

Exam item: Please answer likewise for DDHRDRLEHHASEFITAMLTGNWERLYQLVDPHVRLEIHVNGRKQHRVGREEFWTQWQKFVEDFGIDHSHLDRMEVIGNKMHAEFNIRVGDKRFILELHVIIVNGRISEVRVDFR
Marked response: 2.15

Exam item: // repeat for DEQFKEQKDMHRELEEALLTGDEESWHRLMDPNTRLFFEGRIHHGREEVVRAIREIRRRFGFKVIKRFEVEHVEIIDGRVDIRTIIRGEVNGRDSSLDTRLILNKIDGKWVIQSIIIE and report
Marked response: 2.2

Exam item: Now this one: DEDEELMRRVVEIYIRALHTGDEDWMTHLADPHVKVDLLIDGRETELHGREWVVEIARKLGVKHSEVKDVHLVGDYIVIHLHLRIGDKEEEQDLIFLKVDGKWTLESSTIRRI
Marked response: 1.53

====

assay: protease stability score; higher = more stable; yeast display proteolysis, trypsin and chymotrypsin;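 further: relative to predicted unfolded state with 0 unfolded-like and 1 meaning tenfold more protease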
reported_metric: protease stability score

Exam item: I have this sequence here, SEDEKDAHEAVKRMVHFSETGDWREIEELADPHYRIDWNGRTHIGREEFTEITKRLGINVIRHRHITIINGRIHVHGEVHFNGQSTEVEFIITKINGKWRLHEMIIR , and I need its recorded protease stability score.
Marked response: 0.747

Exam item: Same question, SDEERHAEFVSRRILHALRTGDWEILFKMADPNVKSTIGDKHHHGWEIMSDMYKKLWEDLGVKHLDLKRITYVDGVVHIDERIRIGDKTHNVELNFVVIDGVLRSVEVHVR this time
Marked response: 1.14

Exam item: Ok, now TEEDEEVEWVLKVLKETNDTGDEHTFRKLMDPRTKFHINGKDYIGMEAWREQVEKLGFKHIHDIKIEDMRVYNGRIQLHGRVDMVQGDKKIDMHVILIAVKVNGRWLLRFDIVE
Marked response: 1.38

====

experiment: protease stability score; higher = more stable; yeast display proteolysis, trypsin and chymotrypsin;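 further: relative to predicted unfolded state with 0 unfolded-like and 1 meaning tenfold more protease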
reported_metric: protease stability score

Exam item: Please report the recorded protease stability score for DEEQRVEEEMAEMQRLWHETGDEESIQKNLDPRTRIVIHINGKEIRLHGREAWLKEVRRLGVKYLRIEDMEVVDGRVHARIHYTVNGVKIRIRVEFYIVDGRMEEIRRHWE .
Marked response: 0.432

Exam item: Repeat with SEEEELATEIFRKWIELLETGDEHTFRELADPDYRLIILYGDFIINDIGRERAIERWKQHLKQFDHWEIIIDRERVVNGVVHVDGILVLRINGREHNRRVKIELFIFDGRMKEVDIHID
Marked response: 2.6

Exam item: Now give it for DETTEHVRKLTELLLRSWVTGDEETDEKMADPNVRIIFEGREVHGMHWFSRVVKELRIEHVQIHDERFKVFEGRAEMRVDTHLRGTQGNYHDERKVRVEIHIIKVNGRWHLETIRVSVH too.
Marked response: 1.21

Exam item: Input DEKDRLSEELAKHLYRMMYTGDWERIFKMADPHVRLVIGDKEFHGRENFEETLRDHLEKIKNATMRLDDIELQGDKVHIFFTIHVNGREVEVEVHIRVIDGRIHHVDVQVRWV
Marked response: 1.49

Exam item: Repeat for the following sequence: SEEEEDIRRLEEMLTKNLLTGNEHKLRRLADPHVQIHINGVDIVGMEWMVQVRREMRVEHVDSRIDDVRVIGDKAEVDGTLIIVGEVDGQRTNETIRIHRVFEKVNGRWILHSETFI
Marked response: 1.15

Exam item: Next record, please: SESEEASREAIHLMIESWRTGNEHILDRLMDPNVRNRIDGRDLIGRENFLEVLRHLEEKMGIDHIEFDTERVRWVGDKAESDTRFETVYNGKNVEISTKVHWEKVNGRWHIREIRFH
Marked response: 1.17

Exam item: Next up: DEEHEHAKRAVKKTLTDYYTGDEDSISDLADPNVIQDVGDKEYHGREEFLRSMHKIIKWLGVDHIEVHRVHLINGRVFSRLRLEVDGREVELIIIILKINGRWHWHSMRIIHR
Marked response: 1.03

Exam item: Next sequence up: TEMNDEARRAMKDFIEHLRTGDEDRLDKMLDPHVRMEINGRTFHGREDAIKWHREIRLEDITVKFSTIQGDKVRFFGEEDGIIDGQRHKTEVELIIRKVNGRWFIHEIQVH
Marked response: 1.27

Exam item: Also DHLEDTFRELTRILWEALHTGDWEIRRHYADPNARFQMHINGVELRDHGMDQLSRKYEEWYRRVDHYEVRIKDRRYQGDKMIIHVHIRVKINGKEIHYDVILYIIVVNGRIEEESEEVR , if possible.
Marked response: 1.34

Exam item: And SEEEHMIELIVKWYSRALETGDEEELAEMLDPNTRLDVDGKDIHGRENILKRRKKHLDHLGHERIEIHFDVSHIDYIGDKVIIHVKLILHYNGREIHLDVKMLIVKINGRWRFRHFESK ?
Marked response: 1.93

Exam item: Then this sequence: SDVLESTKSFLRFFVHAMITGNEEELSRNLDPNVRLLFNGVNYHGMEELVRLLIELGIKIHEWHTHDLKFQGEKLYYLGRRDGEVNGRRSEEEVEFIIFKFNGRWFLHEMRIH
Marked response: 0.627
